Entries and their melting point

Q. Quick one: melting point of O=C1NN=C(c2ccc3c(c2)CCN(C2CCC2)CC3)C2CCCC12 (stereo not shown) ?
A. 198 to 201 °C

Q. Quick one: melting point of CC(C)n1nc(-c2ccc3c(c2)CCN(C2CCC2)CC3)ccc1=O ?
A. 199 to 200 °C

Q. Quick one: melting point of O=C1CCC(c2ccc3c(c2)CCN(C2CCC2)CC3)=NN1 ?
A. 178 to 179 °C

Q. Quick one: melting point of O=C1CCC(c2ccc3c(c2)CCN(C2CCC2)CC3)=NN1C1CCC1 ?
A. 126 to 128 °C

Q. Quick one: melting point of O=c1ccc(-c2ccc3c(c2)CCN(C2CCC2)CC3)n[nH]1 ?
A. 250 to 251 °C

Q. Quick one: melting point of Cn1nc(-c2ccc(Oc3ccc4c(c3)CCN(C3CCC3)CC4)nc2)ccc1=O ?
A. 134 to 137 °C

Q. Quick one: melting point of CCCCN1N=C(c2ccc3c(c2)CCN(C2CCC2)CC3)CCC1=O ?
A. 104 to 105 °C

====

Counter-ions that a name gives are not always drawn.
readout type: melting point

Take a look at these entries with their results.
C[C@@H]1CCCN1CCc1ccc(-c2ccc(=O)[nH]n2)cc1 [Example 51]: 159 to 161 °C
Cn1nc(-c2ccc3c(c2)CCN(C2CCCC2)CC3)ccc1=O (as salt: HCl) [Example 23]: 239 to 240 °C
O=C(c1ccc(-c2ccc(=O)[nH]n2)cc1)N1CCC[C@H]1CN1CCCC1 [Example 50]: 62 to 66 °C
CS(=O)(=O)c1ccc(-n2nc(-c3ccc4c(c3)CCN(C3CCC3)CC4)ccc2=O)cc1 [Example 25]: 225 °C
CC(C)N1CCc2ccc(C3=NN(C(C)C)C(=O)CC3)cc2CC1 [Example 6]: 125 to 126 °C
Cn1nc(-c2ccc3c(c2)CCN(C2CCC2)CC3)ccc1=O [Example 21]: 287 to 288 °C
O=C1NN=C(c2ccc3c(c2)CCN(C2CCC2)CC3)C2CC12 (stereo not drawn) (as salt: HCl) [Example 40]: 129 to 132 °C
O=c1ccc(-c2ccc3c(c2)CCN(C2CCC2)CC3)nn1CC(F)(F)F [Example 11]: 142 to 143 °C

Q. Quick one: melting point of CCCCn1nc(-c2ccc3c(c2)CCN(C2CCC2)CC3)ccc1=O [Example 14] ?
A. 88 to 89 °C

====

target: rat histamine H3 receptor (Rattus norvegicus, UniProt Q9QYN8)
Sequence (Q9QYN8 whole entry): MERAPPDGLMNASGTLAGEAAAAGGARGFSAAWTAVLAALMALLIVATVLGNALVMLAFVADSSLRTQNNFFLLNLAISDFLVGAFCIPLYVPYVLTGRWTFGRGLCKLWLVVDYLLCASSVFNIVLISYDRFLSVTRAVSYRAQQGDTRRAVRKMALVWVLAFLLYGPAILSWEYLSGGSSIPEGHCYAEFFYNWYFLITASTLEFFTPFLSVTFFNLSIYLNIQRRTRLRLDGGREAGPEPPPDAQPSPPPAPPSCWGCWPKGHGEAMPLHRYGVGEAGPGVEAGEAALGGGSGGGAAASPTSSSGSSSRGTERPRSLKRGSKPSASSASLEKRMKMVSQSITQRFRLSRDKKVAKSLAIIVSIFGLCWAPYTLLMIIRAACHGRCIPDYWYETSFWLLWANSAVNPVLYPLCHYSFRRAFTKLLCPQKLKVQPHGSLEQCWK
pKi: −log10 of the molar value. Counter-ions that a name gives are not always drawn.
readout type: pKi

Q. Quick one: pKi of CC(C)N(C)CCc1ccc(-c2ccc(=O)n(C)n2)cc1 [Example 54] ?
A. 6.00 to 7.00

Q. Quick one: pKi of Cn1ncc(Oc2ccc3c(c2)CCN(C2CCCC2)CC3)cc1=O [Example 36] ?
A. 6.00 to 7.00

Q. Quick one: pKi of CC(C)N1CCc2ccc(-c3ccc(=O)n(C)n3)cc2CC1 [Example 22, HCl] ?
A. 6.00 to 7.00

Q. Quick one: pKi of C[C@@H]1CCCN1CCc1ccc(-c2ccc(=O)[nH]n2)cc1 [Example 51] ?
A. > 7.00

Q. Quick one: pKi of O=c1ccc(-c2ccc(CCN3CCOCC3)cc2)nn1-c1ccccc1 [Example 68] ?
A. < 6.00

====

These molecules were tested on human H3 receptor (Homo sapiens); Ki is the recorded read-out.
Sequence (Q9Y5N1 whole entry): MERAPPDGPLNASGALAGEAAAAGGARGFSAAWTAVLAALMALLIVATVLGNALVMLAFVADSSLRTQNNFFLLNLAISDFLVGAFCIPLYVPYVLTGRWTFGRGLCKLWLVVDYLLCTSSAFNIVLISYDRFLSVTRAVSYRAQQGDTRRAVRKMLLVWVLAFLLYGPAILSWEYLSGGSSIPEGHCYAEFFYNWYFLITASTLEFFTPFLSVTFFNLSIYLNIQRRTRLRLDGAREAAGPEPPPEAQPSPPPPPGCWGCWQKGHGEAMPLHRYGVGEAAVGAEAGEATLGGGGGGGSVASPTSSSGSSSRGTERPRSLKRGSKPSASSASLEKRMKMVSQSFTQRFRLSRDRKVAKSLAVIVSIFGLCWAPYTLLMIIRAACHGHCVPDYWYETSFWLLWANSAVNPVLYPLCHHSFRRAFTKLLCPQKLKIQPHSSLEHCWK

C[C@@H]1CCCN1CCc1ccc(-c2ccc(=O)[nH]n2)cc1 [Example 51]: < 100 nM

Q. Lookup: Ki / human H3 receptor (Homo sapiens) / CCN(CC)CCc1ccc(-c2ccc(=O)n(C)n2)cc1 [Example 56]
A. 100 to 1000 nM

Q. Lookup: Ki / human H3 receptor (Homo sapiens) / O=C1NN=C(c2ccc3c(c2)CCN(C2CCC2)CC3)C2CCCCC12 (stereo not shown) [Example 44]
A. < 100 nM

Q. Lookup: Ki / human H3 receptor (Homo sapiens) / CC(C)N1CCN(C(=O)c2ccc(-c3ccc(=O)n(C)n3)cc2)CC1 [Example 47]
A. 100 to 1000 nM

Q. Lookup: Ki / human H3 receptor (Homo sapiens) / O=C1CCC(c2ccc3c(c2)CCN(C2CCC2)CC3)=NN1 [Example 9]
A. < 100 nM

Q. Lookup: Ki / human H3 receptor (Homo sapiens) / CC(C)N(C)CCc1ccc(-c2ccc(=O)n(C)n2)cc1 [Example 54]
A. 100 to 1000 nM

Q. Lookup: Ki / human H3 receptor (Homo sapiens) / C[C@@H]1CCCN1CCc1ccc(-c2ccc(=O)n(Cc3ccccc3)n2)cc1 [Example 53]
A. < 100 nM

Q. Lookup: Ki / human H3 receptor (Homo sapiens) / O=c1ccc(-c2ccc(CCN3CCOCC3)cc2)nn1-c1ccccc1 [Example 68]
A. > 1000 nM

Q. Lookup: Ki / human H3 receptor (Homo sapiens) / O=C1NN=C(c2ccc3c(c2)CCNCC3)C2CC12 (stereo not shown) [Example 39]
A. 100 to 1000 nM

Q. Lookup: Ki / human H3 receptor (Homo sapiens) / CC(C)N1N=C(c2ccc3c(c2)CCN(C2CCC2)CC3)CCC1=O [Example 4]
A. < 100 nM

Q. Lookup: Ki / human H3 receptor (Homo sapiens) / CCNCCc1ccc(-c2ccc(=O)n(C)n2)cc1 [Example 57]
A. 100 to 1000 nM

Q. Lookup: Ki / human H3 receptor (Homo sapiens) / CS(=O)(=O)c1ccc(-n2nc(-c3ccc4c(c3)CCN(C3CCC3)CC4)ccc2=O)cc1 [Example 25]
A. < 100 nM

====

Entries and their melting point
Structures can show the parent of a compound that is named as a salt.

CC(C)CN1N=C(c2ccc3c(c2)CCN(C2CCC2)CC3)CCC1=O: 134 to 135 °C
O=c1ccc(-c2ccc(Oc3ccc4c(c3)CCN(C3CCC3)CC4)nc2)n[nH]1: 215 to 220 °C
Cn1nc(-c2ccc3c(c2)CCNCC3)ccc1=O: 183 to 185 °C
CC(C)N1CCc2ccc(-c3ccc(=O)n(C(C)C)n3)cc2CC1: 244 to 245 °C
CC(C)N1CCc2ccc(-c3ccc(=O)n(C)n3)cc2CC1 (as salt: HCl): 254 to 256 °C

Q. Quick one: melting point of CC(C)Cn1nc(-c2ccc3c(c2)CCN(C2CCC2)CC3)ccc1=O ?
A. 245 to 246 °C

====

target: rat histamine H3 receptor (Rattus norvegicus, UniProt Q9QYN8)
pKi: −log10 of the molar value. Where a name gives a salt, the structure may show the parent alone.
Entries and their pKi

Take a look at these entries with their results.
O=C1NN=C(c2ccc3c(c2)CCNCC3)C2CCCC12 (centres unmarked) [Example 41]: 6.00 to 7.00
Cn1nc(-c2ccc3c(c2)CCN(C2CCCC2)CC3)ccc1=O [Example 23, HCl]: 6.00 to 7.00
O=C1NN=C(c2ccc3c(c2)CCN(C2CCC2)CC3)C2CCCCC12 (centres unmarked) [Example 44]: > 7.00
Cn1ncc(Oc2ccc3c(c2)CCN(C2CCCC2)CC3)c(Br)c1=O [Example 32]: > 7.00

// next item, pKi requested
Q. Lookup: pKi / rat histamine H3 receptor (Rattus norvegicus, UniProt Q9QYN8) / Cn1nc(-c2ccc(C(=O)N3CCN(C4CCCC4)CC3)cc2)ccc1=O [Example 46]
A. 6.00 to 7.00

====

pKi: −log10 of the molar value.
These compounds were tested on rat histamine H3 receptor (Rattus norvegicus, UniProt Q9QYN8); pKi is the recorded read-out.

O=c1c(Cl)c(Oc2ccc3c(c2)CCN(C2CCC2)CC3)cnn1-c1ccccn1: > 7.00
Cn1nc(-c2ccc(C(=O)N3CCC[C@H]3CN3CCCC3)cc2)ccc1=O: > 7.00
CC(C)N1CCc2ccc(-c3ccc(=O)n(C(C)C)n3)cc2CC1: 6.00 to 7.00

Q. Quick one: pKi of Cn1ncc(Oc2ccc3c(c2)CCN(C2CCC2)CC3)cc1=O ?
A. 6.00 to 7.00

Q. Quick one: pKi of O=C1CCC(c2ccc3c(c2)CCN(C2CCC2)CC3)=NN1C1CCC1 ?
A. 6.00 to 7.00

Q. Quick one: pKi of O=c1ccc(-c2ccc(CCN3CCCCC3)cc2)nn1-c1ccccc1 ?
A. 6.00 to 7.00

Q. Quick one: pKi of CC(C)N1CCc2ccc(C3=NN(C(C)C)C(=O)CC3)cc2CC1 ?
A. 6.00 to 7.00

Q. Quick one: pKi of C[C@@H]1CCCN1CCc1ccc(-c2ccc(=O)n(-c3ccc(Cl)cc3)n2)cc1 ?
A. > 7.00

Q. Quick one: pKi of Cn1nc(-c2ccc3c(c2)CCNCC3)ccc1=O ?
A. < 6.00

====

molecular target: rat histamine H3 receptor (Rattus norvegicus)
Entries and their Ki

Q. Lookup: Ki / rat histamine H3 receptor (Rattus norvegicus) / CC(C)N1N=C(c2ccc3c(c2)CCN(C2CCC2)CC3)CCC1=O
A. 100 to 1000 nM

Q. Lookup: Ki / rat histamine H3 receptor (Rattus norvegicus) / C[C@@H]1CCCN1CCc1ccc(-c2ccc(=O)n(-c3ccccn3)n2)cc1
A. 100 to 1000 nM

Q. Lookup: Ki / rat histamine H3 receptor (Rattus norvegicus) / CN(CCc1ccc(-c2ccc(=O)n(C)n2)cc1)C1CCC1
A. 100 to 1000 nM

Q. Lookup: Ki / rat histamine H3 receptor (Rattus norvegicus) / CC(=O)N1CCN(CCc2ccc(-c3ccc(=O)n(C)n3)cc2)CC1
A. 100 to 1000 nM

Q. Lookup: Ki / rat histamine H3 receptor (Rattus norvegicus) / CCN(CC)CCc1ccc(-c2ccc(=O)n(C)n2)cc1
A. 100 to 1000 nM

Q. Lookup: Ki / rat histamine H3 receptor (Rattus norvegicus) / CC(C)CN1N=C(c2ccc3c(c2)CCN(C2CCC2)CC3)CCC1=O
A. 100 to 1000 nM

Q. Lookup: Ki / rat histamine H3 receptor (Rattus norvegicus) / CC(C)N1N=C(c2ccc3c(c2)CCNCC3)CCC1=O
A. 100 to 1000 nM

Q. Lookup: Ki / rat histamine H3 receptor (Rattus norvegicus) / O=c1ccc(-c2ccc3c(c2)CCN(C2CCC2)CC3)nn1CC(F)(F)F
A. < 100 nM

Q. Lookup: Ki / rat histamine H3 receptor (Rattus norvegicus) / O=C1NN=C(c2ccc3c(c2)CCNCC3)C2CC12 (stereo not drawn)
A. 100 to 1000 nM

Q. Lookup: Ki / rat histamine H3 receptor (Rattus norvegicus) / CCNCCc1ccc(-c2ccc(=O)n(C)n2)cc1
A. 100 to 1000 nM

Q. Lookup: Ki / rat histamine H3 receptor (Rattus norvegicus) / O=C1CCC(c2ccc3c(c2)CCN(C2CCC2)CC3)=NN1CCO
A. < 100 nM

Q. Lookup: Ki / rat histamine H3 receptor (Rattus norvegicus) / C[C@@H]1CCCN1CCc1ccc(-c2ccc(=O)n(C)n2)cc1
A. < 100 nM
